Quick record: pKd, R15 (WP_207952809-LBD) (Paenibacillus agricola, UniProt A0ABX0IZG8).
Scale: negative log10 of molar concentration, which is what pKd denotes.

O=c1[nH]c(=O)c2nc[nH]c2[nH]1 [Xanthine]    5.12

Note: attention shifts to another entry.
// query Consider the compound Nc1nc2c(ncn2[C@@H]2O[C@H](CO)[C@@H](O)[C@H]2O)c(=O)[nH]1 [Guanosine] tested on R15 (WP_207952809-LBD) (Paenibacillus agricola, UniProt A0ABX0IZG8); state its pKd.
Sequence (A0ABX0IZG8 entry or part of it): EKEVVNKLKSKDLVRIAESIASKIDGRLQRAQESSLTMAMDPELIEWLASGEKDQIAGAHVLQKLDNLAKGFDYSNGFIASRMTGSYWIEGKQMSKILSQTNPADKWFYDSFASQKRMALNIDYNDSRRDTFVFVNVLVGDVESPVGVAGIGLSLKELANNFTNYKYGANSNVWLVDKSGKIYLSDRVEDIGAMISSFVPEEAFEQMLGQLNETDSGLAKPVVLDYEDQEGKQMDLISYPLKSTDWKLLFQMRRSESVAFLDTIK
// result 4.43

----------
- measured target: R4 (WP_199478134-LBD)
- assay context: ITC, 25 °C, pH 8.0; read-out: Dissociation constant, R4
assay metric: Kd (µM)
Give a bare numeral; the unit µM is implied.

Cc1c[nH]c(=O)[nH]c1=O    21

// query // Input: Nc1cc[nH]c(=O)n1 . Output its Kd only.
// result 74

// query // Input: c1ncc2nc[nH]c2n1 . Output its Kd only.
// result 2.3

// query // Input: Nc1ncnc2c1ncn2[C@@H]1O[C@H](CO)[C@@H](O)[C@H]1O . Output its Kd only.
// result 88

----------
Quick record: pKd, R14 (WP_021170906-LBD) (Sporomusa ovata).
Scale: negative log10 of molar concentration, which is what pKd denotes.

Cc1c[nH]c(=O)[nH]c1=O [Thymine]    4.49
c1ncc2nc[nH]c2n1 [Purine]    4.03
Nc1ncnc2c1ncn2[C@@H]1O[C@H](CO)[C@@H](O)[C@H]1O [Adenosine]    4.77
O=c1[nH]c(=O)c2nc[nH]c2[nH]1 [Xanthine]    5.29
Nc1nc2c(ncn2[C@@H]2O[C@H](CO)[C@@H](O)[C@H]2O)c(=O)[nH]1 [Guanosine]    4.60

Note: attention shifts to another entry.
// query Consider the compound Nc1cc[nH]c(=O)n1 [Cytosine] tested on R14 (WP_021170906-LBD) (Sporomusa ovata); state its pKd.
Sequence (A0A0U1L1T7 entry or part of it): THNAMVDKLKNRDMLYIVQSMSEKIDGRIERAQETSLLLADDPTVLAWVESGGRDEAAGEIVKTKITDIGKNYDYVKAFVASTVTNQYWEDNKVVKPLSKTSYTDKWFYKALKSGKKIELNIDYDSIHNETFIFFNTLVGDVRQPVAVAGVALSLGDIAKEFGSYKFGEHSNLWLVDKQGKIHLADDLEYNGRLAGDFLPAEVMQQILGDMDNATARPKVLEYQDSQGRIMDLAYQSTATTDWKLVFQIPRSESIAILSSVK
// result 3.98

----------
- measured target: UniProt A0A0U1L1T7
- measurement notes: Microcalorimetric titration (ITC) of the R14 LBD with ligands
- Format: binding
- assay context: ITC, One binding site model; * = hyperbolic curve
Known N value, R14 of a selection of compounds

Worked examples follow.
O=c1[nH]c(=O)c2nc[nH]c2[nH]1    0.13
Nc1nc2c(ncn2[C@@H]2O[C@H](CO)[C@@H](O)[C@H]2O)c(=O)[nH]1    0.13
Nc1cc[nH]c(=O)n1    0.46
Cc1c[nH]c(=O)[nH]c1=O    0.99

Note: attention shifts to another entry.
// query // Input: c1ncc2nc[nH]c2n1 . Output its N value, R14 only.
// result 0.19

----------
Known Kd of a selection of compounds
- measured target: R1 (WP_219614703-LBD) (Aeromonas salmonicida, UniProt T0PLV6)
Give a bare numeral; the unit µM is implied.

Nc1cc[nH]c(=O)n1    1460
Nc1ncnc2c1ncn2[C@@H]1O[C@H](CO)[C@@H](O)[C@H]1O    1.1
Cc1c[nH]c(=O)[nH]c1=O    595

Note: attention shifts to another entry.
// query // Input: Nc1nc2c(ncn2[C@@H]2O[C@H](CO)[C@@H](O)[C@H]2O)c(=O)[nH]1 . Output its Kd only.
// result 1.2
